System: Cotton Aphid (Aphis gossypii)
Assay: Cotton aphid foliar spray assay on squash
Assay type: in vivo
Details: 72 h, read-out: % Control of cotton aphid on squash (foliar spray)
endpoint_label: pest or weed control at 0.781 ppm

>>> assay_result("N#CN=S1(=O)CCCC1Cc1ccc(C(F)(F)F)nc1 (stereo not shown) [Compound 10]")
"60 to 69%"
>>> assay_result("CC(c1ccc(C(F)(F)Cl)nc1)S(C)(=O)=NC#N (stereo not shown) [Compound 4]")
"90 to 100%"

If you can, please state the reported pest or weed control at 0.781 ppm value of CC(c1ccc(C(Cl)(Cl)Cl)nc1)S(C)(=O)=NC#N (stereo not shown) [Compound 5] .
90 to 100%

Here is the next molecule: CC(c1ccc(C(F)(F)F)nc1)S(C)(=O)=NC#N (stereo not shown) [Compound 2]
90 to 100%
